- Assay system: human cloned somatostatin receptor 3 (human) (UniProt P32745)
- Sequence (P32745 whole entry): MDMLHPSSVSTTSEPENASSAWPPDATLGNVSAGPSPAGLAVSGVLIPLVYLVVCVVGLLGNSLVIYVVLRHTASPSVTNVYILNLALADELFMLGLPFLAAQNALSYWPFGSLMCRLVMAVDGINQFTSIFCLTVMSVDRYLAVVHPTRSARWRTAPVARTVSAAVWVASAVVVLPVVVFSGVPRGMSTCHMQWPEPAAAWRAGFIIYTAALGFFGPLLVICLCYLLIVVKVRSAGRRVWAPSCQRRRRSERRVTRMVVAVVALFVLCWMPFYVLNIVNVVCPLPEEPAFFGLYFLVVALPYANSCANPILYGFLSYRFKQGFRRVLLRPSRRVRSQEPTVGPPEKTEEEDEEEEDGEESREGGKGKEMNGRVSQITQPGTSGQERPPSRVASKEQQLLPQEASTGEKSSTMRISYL
- Assay details: 125I-Tyr11-SRIF-14 displacement
*1 amine or outer side, *2 acyl side, *3 side chain or, on linkers, in order; H or OH if unused. Bridges are numbered along the chain shown (N, C = ends). [ ]: non-standard residue; d: D form. The star is where a group is joined. DOTA = O=C(O)CN1CCN(CC(=O)O)CCN(CC(=O)*)CCN(CC(=O)O)CC1; N(2-mercaptoethyl)Gly = O=C(CN(CCS[*:3])[*:1])[*:2]; Aoc = NCCCCCCCC(=O)O; CPT = camptothecin; GABA = NCCCC(=O)O
Endpoint name: % displacement at 10 nM (%)

Binder	Endpoint name	Result unit	Readout number
{DOTA}-A[dF]RCF[dW]KTF[N(2-mercaptoethyl)Gly]-NH2 (disulfide 4-10; SMILES C[C@H](NC(=O)CN1CCN(CC(=O)O)CCN(CC(=O)O)CCN(CC(=O)O)CC1)C(=O)N[C@H](Cc1ccccc1)C(=O)N[C@@H](CCCNC(=N)N)C(=O)N[C@H]1CSSCCN(CC(N)=O)C(=O)[C@H](Cc2ccccc2)NC(=O)[C@H]([C@@H](C)O)NC(=O)[C@H](CCCCN)NC(=O)[C@@H](Cc2c[nH]c3ccccc23)NC(=O)[C@H](Cc2ccccc2)NC1=O) [SEQ ID NO: 12]	% displacement at 10 nM	%	93
{CPT-Aoc}-[dF]RCF[dW]KTF[N(2-mercaptoethyl)Gly]-NH2 (disulfide 3-9) [SEQ ID NO: 27]	% displacement at 10 nM	%	51
{DOTA}-[dF]RCY[dW]KTF[N(2-mercaptoethyl)Gly]-NH2 (disulfide 3-9; SMILES C[C@@H](O)[C@@H]1NC(=O)[C@H](CCCCN)NC(=O)[C@@H](Cc2c[nH]c3ccccc23)NC(=O)[C@H](Cc2ccc(O)cc2)NC(=O)[C@@H](NC(=O)[C@H](CCCNC(=N)N)NC(=O)[C@@H](Cc2ccccc2)NC(=O)CN2CCN(CC(=O)O)CCN(CC(=O)O)CCN(CC(=O)O)CC2)CSSCCN(CC(N)=O)C(=O)[C@H](Cc2ccccc2)NC1=O) [SEQ ID NO: 25]	% displacement at 10 nM	%	94
{DOTA}-[dF]KCY[dW]KTF[N(2-mercaptoethyl)Gly]-NH2 (disulfide 3-9; SMILES C[C@@H](O)[C@@H]1NC(=O)[C@H](CCCCN)NC(=O)[C@@H](Cc2c[nH]c3ccccc23)NC(=O)[C@H](Cc2ccc(O)cc2)NC(=O)[C@@H](NC(=O)[C@H](CCCCN)NC(=O)[C@@H](Cc2ccccc2)NC(=O)CN2CCN(CC(=O)O)CCN(CC(=O)O)CCN(CC(=O)O)CC2)CSSCCN(CC(N)=O)C(=O)[C@H](Cc2ccccc2)NC1=O) [SEQ ID NO: 24]	% displacement at 10 nM	%	88
{DOTA-GABA}-[dF]RCF[dW]KTF[N(2-mercaptoethyl)Gly]-NH2 (disulfide 3-9; also: Ga complex of DOTA) [SEQ ID NO: 8]	% displacement at 10 nM	%	88
